Cited source: the supplement of paper PMC9170038

Tested on: MS2 coat protein
Test: apparent KD of MS2 coat protein, switch ON state; designed switch direction (-1 OFF switch, 1 ON switch): -1; higher = weaker reporter binding
Conditions: FMN input: 0 or 200 uM; Eterna round: R93 (includes R88 designs)
Give yes when the value for apparent KD of MS2 coat protein is at least 0.03 µM. Give no when it is less.

{"columns": ["Primary Sequence", "Label"],
 "data": [
  ["AAAGGAUCAGGAUAUGUGUGGAAAAAGUGUAUCCGAAAAAAACAUGAGGAUCACCCAUGUAGAAGGGAUCCAAA [Mod 3 of Normal (20/19) by Nando, Round 1]", "yes"],
  ["AAGAAGUGAGGAUAUCGAAGACUGUCGAAAAGACAGUCGAACGAGAAGGCACAUGAGGAUCACCCAUGUGAGAA [Marsurpial 65% 1]", "yes"],
  ["AGCUAGUCAGGAUAUACAAACAUGUCAAAAGACGUGAAGAAACAUGAGGAUCACCCAUGUAGAAGGGACUAGCA [Mat - Exclusion 2 - JL mod - D16]", "no"],
  ["CUAGUACAUGAGGAUCACCCAUGUCAGGAUAUUGGAUAUGCCAUGGAAAACAUGUUUACAAGAAGGGACUAUAG [EX1 Malc#22]", "yes"],
  ["AAAUGAUGAGGAUAUACAUGAGGAUCACCCAUGUGUAAAAAUAAAUACACAAAAGAAAGUAGAAGGCAUCAAAA [Ex 3 May 12]", "no"],
  ["AAGAACUGAGGAUAUACAAAAGAAAAGAAAAGAAAGAAAGAACAUGAGGAUCACCCAUGUAGAAGGCGGAAGAA [Khahotepre Sobekhotep VI]", "yes"],
  ["AACAGGACAGGAUAUACAUGAGGAUCACCCAUGUAGGAACAAAGCAGAGUACCAAACAGUAGAAGGGUCAUGGA [Ruby 28]", "yes"],
  ["AAGAAGUGAGGAUAUGCAAAAGAAAAGAAAAGAAAAGAAAAGCAGAAGGCACAUGAGGAUCACCCAUGUAAGAA [Petubastis III]", "no"],
  ["AAAAAACAUGAGGAUCACCCAUGUAAGGAUAUCGUGCAGAAAAAAAAAAAAAACUGCACGAGAAGGUACUUGGA [Brourd - Exclusion 1 - Sub 3]", "yes"],
  ["AAGAAGUCAGGAUAUACAUGAGGAUCACCCAUGUAAAAGAAAGAAGGGAAAGAGAAAAGUAGAAGGGACAAGAA [Usermaatre-setpenamun Takelot III]", "yes"]
]}

====

Below: a set of entries, each annotated with reported apparent KD of K4 kissing-loop reporter.
Tested on: K4 kissing-loop RNA reporter
Experiment: apparent KD of K4 kissing-loop reporter; higher = weaker reporter binding
Conditions: Eterna round: R107; input ligand: theophylline 20 uM
Property Name: apparent KD of K4 kissing-loop reporter (nM)

{"columns": ["Primary Sequence", "Measurement"],
 "data": [
  ["UACUAUAGUGAUGUUAUAGAUAAACCAGAUACCAGUGUAACAUAACACCCUUGGCAGCUGAUAAGGGAAAGUAUAAAUGUGUAUU [AstrosSSTHe-A#3newdesignED]", 219],
  ["GGUAGCAUCGCGGCCGCCACUAAUCGCUAAGGCUCAGGACCCUAAUAGCGAGUGAUGUUCGCCCUUAGGACCGGGCGAUGCUACC", 87.5],
  ["CCUAUCUCAUACGAUACCAGUCAAUUAAAACGAGUGAUGUUCGAAAAUUUGCCAUAUAAUGACCCUUGGCAGCGUAUGGGAUAGG [Ex Theophylline B K4 7]", 197],
  ["AGUGGACGUGUUCGGAGUGAUGUUCCGGAUACCAGACACGAAAGUGUCCCUUGGCAGCCGGAGUGAUGUUCCGGCGUUCACUAAA [Omei KL Theo A Exc B v2]", 533],
  ["AGUAGAGCAUCAGAUACCAGACAGAACUGAUGGUAAGGAGUGAUGUUCCUUAAUCAGCUUGUCCCUUGGCAGCUGAUAAUAGUCA [#13 K4 Theophylline B Same State]", 359],
  ["UGUAUGUGAUGUGAUACCAGUGAAGAGCCAGUGAUGUUGGUAGAACUGGUAUAUAAAUAACACCCUUGGCAGCACAAUCACGUAC [whbob_Ex_Theo_B_sa99]", 320],
  ["UAUUUAAAUAAAAUAAAAUAAAUUGCUGAUACCAGAGCCAAUUGGCUCCCUUGGCAGCGGAUCGAGUGAUGUUCGUAAAAUUUAU [AK2 SS Theophylline A]", 61.5],
  ["CGGCGGAGUGAUGUUCUGCUCGCUCCGGAUACCAGCUUCGCCAGAGGCCCUUGGCAGCCGGGCGGCCCAGUGAUGUUGGGUUGCG [Same State Theophylline A GF 17]", 246],
  ["UUUUAAAUAUCUGAUACCAGAGAAAAUAUAUGUAGUGAUGUUAUAUACAAAAUAAAUAAGCUCCCUUGGCAGCAGUAUUAAUUUU [AstrosExyTheB#1]", 688],
  ["CGUUUAUAGCAGGAUACCAGUACCCAUAAAGUACGUUAAUAGUAGAGUGAUGUUCUAAAGUACCCUUGGCAGCUUCCCGUGAGUG [ExTheophylB.T]", 134],
  ["UUUUUGGAGAAUUAUAGUGAUGUUAUGAAGGAGGAUAUCUGGAGAUGGAGAAGGCCUAGUGGCUCAGCCCUGGAGGGUGGGUGGG [ExFMNA.aB]", 556],
  ["AGUGAUGUGGGAAGGAGCGCUACAUCACUUCAGUGAUGUUGAAGUGAUGAAUUAGUGAUGUAGCAGGUAGGUCGCCUAGAUGUUA [KL-XARG-B12]", 60.8],
  ["GCAGGACGAUGAGGAGGAUGAAUUACUGAAGGAGCGCAUAUGGUUGCAGGUAGGUCGCGGUGAACAAGUAUAGUGAUGUUAUAUC [SSArgA.R]", 471],
  ["AGUACGGUGCCGUUCAGAUCAACGUAUGAUACCAGCUCGUAUAUUAGCCCUUGGCAGCAUCCGAGUGAUGUUCGGAUUGUGCCAC [theeternabot_exclusion_KL_Theo_A_45]", 93.5],
  ["CUGUAUCAUAUUGAUACCAGAGAAAGAACCAGUGAUGUUGGAAAAGACGAAUAAAUUAUACUCCCUUGGCAGCGGAAAUGAACAG [Totally accidental]", 105],
  ["UUACAGGAACAAGGAUAUGGCGUUGUAGUGAUGUUACAGCGAAGAGCUCCACGCGAUCGGACAAAACCAGAAGGUGUAUGGAAUC [theeternabot_exclusion_KL_FMN_B_42]", 116],
  ["AAUGUACAGGGAAGGAGCGUCGUCCAGUGAUGUUGGAGUUAAAUACCAGUGAUGUUGGUUAGGCAGGUAGGUCGCCCUAAAGUAG [#09 K4 Arginine B Exclusion]", 86.5],
  ["GUAUGUGGAAACACGUACUUAUAUCCUAAGCAGGAUAUGCGGAAACGCAGAAGGGCUACCAACGAGUUUACCCAGUGAUGUUGGG [Ex FMN A 14]", 288],
  ["AGGAGCGUGCGAUGAAAAUCGCACGCUCCUCGAGGACCGGUACGGCCGCCACUCGCUCGCGCCGAGUGAUGUUCGGCCGGCGAAC [#2 Same State - Tryptophan A Attempt #8 (HarryS)]", 269],
  ["AACAAGGGAUGUCAGUGAUGUUGUACGUCGCGAGGACCGGUACGGCCGCCACUCGUAAUACACAGAUGAGGGUUCUUUCUCUGAU [theeternabot_sameState_KL_Trp_A_49]", 265],
  ["GAUACGAAGCAGUGAUGUUGCUUAUGAGAAGGAGCGCACGAAAGUGCAGGUAGGUCGCUCAGCCAUGUGGACGAAAACGUCCACA [whbob_SS_Arginine_A_sa111]", 126],
  ["GGACAAGCAUUAGGAUAUAUAGAGCGAAACGCAAUUGAGUGAUGUUCAAAAGCAUAGGGCGAGGAAAUAGAAGGAAUGCACGGGC [Default title]", 151],
  ["GCCGUACGCAUGGAUACCAGCAUCGACUCAUAUACAGUGAUGUUGUGUAAUGACCUCAUUUGCCCUUGGCAGCCAUGCGUACGGC", 857]
]}

====

Tested on: K4 kissing-loop RNA reporter;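 further: bound reporter read as fluorescence of individual clusters on recovered sequencing chips by microscopy, with normalized cluster intensities fitted with a binding model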
Assay: apparent KD of K4 kissing-loop reporter; higher = weaker reporter binding
Conditions: Eterna round: R107; input ligand: arginine 13.2 mM
Property Name: apparent KD of K4 kissing-loop reporter (nM)

{"columns": ["Primary Sequence", "Assay System", "Property Name", "Measurement"],
 "data": [
  ["UGACUGGACUGAAGGAGCGCUAAACUCCUAGUGAUGUUAGGAUAACGAGACAAAGUCUCGAGGCAGGUAGGUCGCAGUCUAGUCU", "K4 kissing-loop RNA reporter", "apparent KD of K4 kissing-loop reporter", 134],
  ["UACUAUAGUGAUGUUAUAGAUAAACCAGAUACCAGUGUAACAUAACACCCUUGGCAGCUGAUAAGGGAAAGUAUAAAUGUGUAUU [AstrosSSTHe-A#3newdesignED]", "K4 kissing-loop RNA reporter", "apparent KD of K4 kissing-loop reporter", 198],
  ["CGUUCCUCUGUCGAUACCAGCUUCAGUUGGCGGCCAGUGAUGUUGGUAUUGCCGAUGCCAAGCCCUUGGCAGCGAUAUGAGACCC [Aredi]", "K4 kissing-loop RNA reporter", "apparent KD of K4 kissing-loop reporter", 403]
]}
